From: ChEMBL document CHEMBL1201862

Tested on: SN12C
protocol: NCI tumour cell line growth inhibition, 48 h
Calls of active or inactive are those of the source. No stated cut-off is given here; in the data, active = GI50 up to about 1.1 µM and inactive = higher.
Quick reference for GI50 among some molecules

CN1CCc2c3n(c4cc(Br)ccc24)[C@H](O)CCCC31 (stereo not given in full): > 7.16 µM (inactive)
Cc1ccc(S(=O)(=O)Nn2c(S)c(C#N)c(-c3ccc(Cl)cc3)c(C#N)c2=O)cc1: 25.7 µM (inactive)
O=C(/C=C/c1ccccc1Cl)c1cccc2ccccc12: 48.6 µM (inactive)
CCN(CC)CCN(C(=O)C(C)(C)C)c1ccccc1N: > 100 µM (inactive)
N#Cc1c(N)nc2[nH]nc(N)c2c1-c1ccccc1: 5.33 µM (inactive)
c1n[nH]cc1C12C3C4C5C3C1C5C42 (stereo not given): > 100 µM (inactive)
Cc1nc(-n2[nH]c(C)c(CCO)c2=O)[nH]c(=O)c1CCO: > 100 µM (inactive)
CC(C)(C)c1ccc(-c2nc3ccc(Cl)cc3c(=O)o2)cc1: 27.1 µM (inactive)
N#Cc1sc2c(c1OC(=O)c1ccc(Cl)cc1Cl)c(=O)n(-c1ccccc1)c(=S)n2-c1ccccc1: 21.8 µM (inactive)

In: Would you kindly share the measured GI50 for `Cc1cc2c(C(C)C)c(O)c(O)c(/C=N/c3ccccc3)c2c(O)c1-c1c(C)cc2c(C(C)C)c(O)c(O)c(/C=N/c3ccccc3)c2c1O` ?
Out: > 100 µM (inactive)
